ASSAYED_SYSTEM: T1, human GIP receptor (human, UniProt P48546 22-466)
T1 sequence (looked up): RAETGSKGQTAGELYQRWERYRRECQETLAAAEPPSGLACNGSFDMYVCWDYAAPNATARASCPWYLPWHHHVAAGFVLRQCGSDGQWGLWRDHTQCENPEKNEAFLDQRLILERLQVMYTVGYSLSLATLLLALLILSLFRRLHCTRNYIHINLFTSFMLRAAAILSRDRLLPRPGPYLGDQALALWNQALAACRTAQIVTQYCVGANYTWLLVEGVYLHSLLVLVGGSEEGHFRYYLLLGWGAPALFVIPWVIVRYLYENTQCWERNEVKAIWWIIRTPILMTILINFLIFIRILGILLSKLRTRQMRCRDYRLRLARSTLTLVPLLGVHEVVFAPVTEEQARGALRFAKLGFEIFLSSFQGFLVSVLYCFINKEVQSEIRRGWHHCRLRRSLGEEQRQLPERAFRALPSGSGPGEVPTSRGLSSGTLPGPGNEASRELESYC
EXPERIMENT: cell-based or functional assay
Positions of bridges follow the written chain, without caps; N, C: chain ends. Non-standard residues stand in square brackets, D forms with d. No end group written: not given here. *: point of attachment. Acetyl(2-(4-imidazolyl)) = O=C(Cc1c[nH]cn1)*; Aib = CC(C)(N)C(=O)O
I'd be grateful if you could share measured In vitro activity relative to native peptide (%), vs. GIP (cAMP EC50) for these entries.
Answers are plain numbers, in %.

// batch mode: one In vitro activity relative to native peptide (%), vs. GIP (cAMP EC50) value per listed entry
1. {Acetyl(2-(4-imidazolyl))}-[Aib]EGTFTSDYSIAMDEIHQKDFVNWLLAQC (bridge 15-19) [trigonal agonist of SEQ ID NO: 83]
2. Y[Aib]QGTFTSDYSKALDEKAAKDFVNWLLDHHPSSGQPPPSC (bridge 16-20) [trigonal agonist of SEQ ID NO: 99]
3. Y[Aib]QGTFTSDYSKYLDEKRAKEFVQWLLDHHCSSGQPPPS (bridge 16-20) [trigonal agonist of SEQ ID NO: 43]
4. Y[Aib]QGTFTSDYSKCLDEKAAKEFVQWLLDHHPSSGQPPPS (bridge 16-20) [trigonal agonist of SEQ ID NO: 68]

Result string:
1: 0.4; 2: 57.7; 3: 3.7; 4: 107
